Target: T1, mouse NMUR1-CTG (mouse, UniProt O55040 1-428)
T1 sequence (looked up): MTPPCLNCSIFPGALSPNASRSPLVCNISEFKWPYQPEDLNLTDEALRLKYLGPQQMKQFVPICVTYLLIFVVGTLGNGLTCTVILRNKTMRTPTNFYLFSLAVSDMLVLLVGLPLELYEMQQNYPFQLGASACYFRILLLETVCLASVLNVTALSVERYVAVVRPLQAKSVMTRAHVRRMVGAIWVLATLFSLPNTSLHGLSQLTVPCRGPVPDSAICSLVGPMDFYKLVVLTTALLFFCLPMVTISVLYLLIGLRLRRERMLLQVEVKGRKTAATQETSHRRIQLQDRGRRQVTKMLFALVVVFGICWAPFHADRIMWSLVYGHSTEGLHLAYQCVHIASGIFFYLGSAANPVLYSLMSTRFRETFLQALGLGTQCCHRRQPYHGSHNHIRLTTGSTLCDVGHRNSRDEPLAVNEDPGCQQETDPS
Assay: cell-based or functional assay
Starred links: 1 amine or outer side, 2 acyl side, 3 side chain; linkers in the order of their positions; H or OH if unused. Non-standard residues stand in square brackets, D forms with d. No end group written: not given here. *: point of attachment. Ttds = 1-amino-4,7,10-trioxa-13-tridecanamine succinimic acid spacer, O=C(CCC(=O)[*:2])NCCCOCCOCCOCCCN[*:1]; (PEG)2 40 kDa = branched PEG of 40 kDa linked via the Cys side-chain thiol (code C2 = Cys(PEG)2 40 kDa); Succinimide(1-Et,3-yl) = CCN1C(=O)CC(*)C1=O; Palmitoyl = CCCCCCCCCCCCCCCC(=O)*
experimental endpoint: % Activity (FLIPR) (%)
Express your answer in %, writing the number without its unit.

// worked examples, % Activity (FLIPR) included
binder: Ac-C(Succinimide(1-Et,3-yl))[Ttds]FLFRPRN-NH2 (SMILES CCN1C(=O)CC(SC[C@H](NC(C)=O)C(=O)NCCCOCCOCCOCCCNC(=O)CCC(=O)N[C@@H](Cc2ccccc2)C(=O)N[C@@H](CC(C)C)C(=O)N[C@@H](Cc2ccccc2)C(=O)N[C@@H](CCCNC(=N)N)C(=O)N2CCC[C@H]2C(=O)N[C@@H](CCCNC(=N)N)C(=O)N[C@@H](CC(N)=O)C(N)=O)C1=O) [NMU15]
endpoint unit: %
% Activity (FLIPR): 100
//
binder: GYFLFRPRN-NH2 [NMU3]
endpoint unit: %
% Activity (FLIPR): 100
//
binder: Palmitoyl-C(Succinimide(1-Et,3-yl))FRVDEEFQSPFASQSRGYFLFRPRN-NH2 [NMU24]
endpoint unit: %
% Activity (FLIPR): 56.1
//
binder: Ac-C((PEG)2 40 kDa)FRVDEEFQSPFASQSRGYF[dA]WRPRN-NH2 [NMU14]
endpoint unit: %
% Activity (FLIPR): 24.8
//
binder: Ac-C(PEG 20 kDa)C(PEG 20 kDa)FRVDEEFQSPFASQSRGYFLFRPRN-NH2 [NMU23]
endpoint unit: %
% Activity (FLIPR): 50.9

Exercise: Output measured % Activity (FLIPR) for this item: Ac-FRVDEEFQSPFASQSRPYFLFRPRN-NH2 [NMU5]
Solution: 100

Exercise: Read off the recorded % Activity (FLIPR) for Ac-C((PEG)2 40 kDa)FQSPFASQSRGYFLFRPRN-NH2 [NMU20]
Solution: 65.4

Exercise: Hello, please tell me recorded % Activity (FLIPR) for this one: Ac-C((PEG)2 40 kDa)[Ttds]FLFRPRN-NH2 [NMU16]
Solution: 57.2

Reference for the values: patent US20070244048A1
